Experiment: AUC (0 to 24 hrs) in jugular vein cannulated Sprague-Dawley rat at 6 mg/kg, po by HPLC-MS analysis
Format: ADME, organism-based
Design: time < 24 hr, dose 6 mg/kg, route oral
Settings: plasma
Test readout: AUC(0-t) at 24 h (µM·h)
# output: bare number, implied unit µM·h

Item under review: COCCCOc1cc(C(=O)N(C[C@@H]2CNC[C@H]2Cc2ccccc2)C(C)C)ccc1OC.Cl . Reported AUC(0-t) at 24 h?
4.81

* * *

Target: Renin (Homo sapiens, UniProt P00797)
Sequence (P00797 whole entry): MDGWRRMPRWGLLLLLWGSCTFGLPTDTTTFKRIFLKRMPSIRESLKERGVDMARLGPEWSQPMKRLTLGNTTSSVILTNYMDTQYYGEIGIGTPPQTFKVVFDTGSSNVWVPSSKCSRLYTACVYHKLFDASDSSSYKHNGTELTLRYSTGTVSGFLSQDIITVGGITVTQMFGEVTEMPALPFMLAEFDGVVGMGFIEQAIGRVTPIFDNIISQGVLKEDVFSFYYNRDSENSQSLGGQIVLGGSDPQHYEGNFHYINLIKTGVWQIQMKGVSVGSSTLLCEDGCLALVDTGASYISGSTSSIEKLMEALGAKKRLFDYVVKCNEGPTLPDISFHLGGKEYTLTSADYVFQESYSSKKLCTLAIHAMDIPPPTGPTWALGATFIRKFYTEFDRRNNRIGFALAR
Experiment: Inhibition of renin in human plasma using RE(EDANS)IHPFHLVIHTK(Dabcyl)R as substrate incubated for 1 hr prior to substrate addition measured after 2 hrs by FRET-based enzymatic assay
Test readout: pIC50
A value of pIC50 is the negative decimal logarithm of a concentration given in moles per litre.

Item under review: COCCCOc1cc(C(=O)N(C[C@@H]2CNC[C@H]2Cc2ccccc2)C(C)C)ccc1OC.Cl . Reported pIC50?
6.52

* * *

Test: Plasma clearance in Sprague-Dawley rat at 2 mg/kg, iv by HPLC-MS analysis
Assay type: ADME, organism-based
Parameters: dose 2 mg/kg, route intravenous
Test readout: clearance (mL/min/kg)
# output: bare number, implied unit mL/min/kg

Item under review: COCCCOc1cc(C(=O)N(C[C@@H]2CNC[C@H]2Cc2ccccc2)C(C)C)ccc1OC.Cl . Reported clearance?
25

* * *

Target: Beta-secretase 2 (Homo sapiens, UniProt Q9Y5Z0)
Sequence (Q9Y5Z0 whole entry): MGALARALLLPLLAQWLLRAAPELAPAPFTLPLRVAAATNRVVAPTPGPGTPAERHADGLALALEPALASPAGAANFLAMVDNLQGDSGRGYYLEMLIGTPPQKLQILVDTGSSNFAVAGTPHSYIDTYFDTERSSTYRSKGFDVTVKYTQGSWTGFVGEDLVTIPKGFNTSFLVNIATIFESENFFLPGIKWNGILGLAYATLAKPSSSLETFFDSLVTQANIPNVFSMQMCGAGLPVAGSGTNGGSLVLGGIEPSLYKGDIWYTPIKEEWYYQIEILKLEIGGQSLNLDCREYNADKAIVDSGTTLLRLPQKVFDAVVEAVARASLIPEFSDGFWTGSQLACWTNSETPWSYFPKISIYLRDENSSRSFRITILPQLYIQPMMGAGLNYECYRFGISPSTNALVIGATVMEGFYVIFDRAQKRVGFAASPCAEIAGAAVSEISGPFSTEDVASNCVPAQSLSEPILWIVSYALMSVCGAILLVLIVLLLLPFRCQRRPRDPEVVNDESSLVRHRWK
Assay: Inhibition of human recombinant BACE-2 expressed in baculovirus-infected insect sf9 cells using RE( EDANS)-EVNLDAEF-K(DABSYL)-R as substrate incubated for 1 hr prior to substrate addition measured after 1 hr by FRET-based enzymatic assay
pIC50: −log10 of the molar value.
Test readout: pIC50

I'm curious: which pIC50 was measured for COCCCOc1cc(C(=O)N(C[C@@H]2CNC[C@H]2Cc2ccccc2)C(C)C)ccc1OC.Cl tested on Beta-secretase 2 (Homo sapiens, UniProt Q9Y5Z0)?
< 4.52

* * *

Test: Half life in jugular vein cannulated Sprague-Dawley rat at 2 mg/kg, iv by HPLC-MS analysis
Assay type: ADME, organism-based
Parameters: dose 2 mg/kg, route intravenous
Conditions: in vivo
Test readout: half-life (h)
# output: bare number, implied unit h

Item under review: COCCCOc1cc(C(=O)N(C[C@@H]2CNC[C@H]2Cc2ccccc2)C(C)C)ccc1OC.Cl . Reported half-life?
2

* * *

Molecular target: Gastricsin (Homo sapiens)
Sequence (P20142 whole entry): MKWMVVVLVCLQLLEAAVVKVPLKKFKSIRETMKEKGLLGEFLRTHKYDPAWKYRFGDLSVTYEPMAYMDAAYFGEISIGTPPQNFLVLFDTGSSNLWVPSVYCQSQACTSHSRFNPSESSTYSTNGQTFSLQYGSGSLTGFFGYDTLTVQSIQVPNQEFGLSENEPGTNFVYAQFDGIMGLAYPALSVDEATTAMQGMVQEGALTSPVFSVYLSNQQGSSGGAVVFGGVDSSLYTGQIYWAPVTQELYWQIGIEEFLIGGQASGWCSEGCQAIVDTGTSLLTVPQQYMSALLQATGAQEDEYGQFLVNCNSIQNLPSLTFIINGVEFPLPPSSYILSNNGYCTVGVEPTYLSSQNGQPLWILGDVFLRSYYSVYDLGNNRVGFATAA
Experiment: Inhibition of human recombinant pepsin C expressed in Escherichia coli using Dabcyl-E-R-Nle-F-L-S-F-P-EDANS as substrate incubated for 1 hr prior to substrate addition measured after 1 hr by FRET-based enzymatic assay
Test readout: IC50 (µM)
# output: bare number, implied unit µM

Item under review: Clc1ccc(N(C[C@@H]2CNC[C@H]2Cc2ccccc2)c2ccccc2)cc1 . Reported IC50?
29

* * *

Below, each of the compounds is paired with its reported pIC50 value.
Target: Renin (Homo sapiens)
Test: Inhibition of human recombinant renin expressed in CHO cells using RE(EDANS)IHPFHLVIHTK(Dabcyl)R as substrate incubated for 1 hr prior to substrate addition measured after 2 hrs by FRET-based enzymatic assay
A value of pIC50 is the negative decimal logarithm of a concentration given in moles per litre.

Item under review: COCCCOc1cc(C(=O)N(CC2CNCC2Cc2ccccc2)C(C)C)ccc1OC (racemic) . Reported pIC50?
6.35

Item under review: COCCCOc1cc(CN(CC2CNCC2Cc2ccccc2)C(C)C)ccc1OC (racemic) . Reported pIC50?
5.11

Item under review: COCCCOc1cc(CN(CC2CNCC2Cc2ccccc2)c2ccc(Cl)cc2)ccc1OC (racemic) . Reported pIC50?
5.01

Item under review: COCCCOc1cc(C(=O)N(C[C@H]2CNC[C@@H]2Cc2ccccc2)C(C)C)ccc1OC . Reported pIC50?
5.57

Item under review: COCCCOc1cc(C(=O)N(CC2CNCC2Cc2ccccc2)c2ccc(Cl)cc2)ccc1OC (racemic) . Reported pIC50?
5.77

Item under review: Clc1ccc(N(C[C@H]2CNC[C@@H]2Cc2ccccc2)c2ccccc2)cc1 . Reported pIC50?
4.74

Item under review: COCCCOc1cc(C(=O)N(CC2CNCC2Cc2ccccc2)c2ccccc2)ccc1OC (racemic) . Reported pIC50?
5.72

Item under review: COCCCOc1cc(C(=O)N(C[C@@H]2CNC[C@H]2Cc2ccccc2)C(C)C)ccc1OC.Cl . Reported pIC50?
6.77
